system: K562; assay: NCI tumour cell line growth inhibition, 48 h
Active and inactive are the calls of the source. Cut-off read from the data, not from the text of the source: active = GI50 up to about 1.1 µM and inactive = higher.
Possible outcomes: 1 = active, -1 = inactive

Molecule: CC(=O)OC1[C@H]2c3cc4c(cc3CN3CCC(=C[C@@H]1O)C23)OCO4 (stereo partly specified)
Label: -1

Molecule: CC(C)CCNC(=O)c1ccc(CNC(=O)/C=C/c2ccc(OCc3ccccc3)cc2)cc1
Label: -1

Molecule: COC(=O)C(NC(=O)CNC(=O)CSc1nnc(COc2ccc(Cl)cc2)n1-c1ccccc1)C(C)C (stereo unspecified)
Label: -1

Molecule: Cc1cc(S(=O)(=O)Nc2nc(N)n[nH]2)c(Cl)cc1Cl
Label: -1

Molecule: COc1ccc(Nc2nc3ccccc3nc2-c2cccs2)cc1
Label: -1

Molecule: O=C(/C(=C/c1ccc(O)cc1)c1ccccc1)c1ccccc1
Label: -1

Molecule: O=C1O[C@H](C(Cl)(Cl)Cl)N2CCCC12 (stereo partly specified)
Label: -1

Molecule: COc1ccccc1NC(=S)N/N=C/c1ccccn1
Label: 1

Molecule: CN(C)CCn1c2ccccc2c2nc3cc4ccccc4cc3nc21
Label: -1

Molecule: CSC1=C(C(=O)N(COCC[Si](C)(C)C)c2ccccc2Br)CCC(C(C)(C)C)C1 (stereo unspecified)
Label: -1

Molecule: CCOC(=O)c1c(C(F)(F)F)oc2c1ccc1nc3nonc3nc12
Label: -1
